Measured Potency accompanies every entry in the list below.
target of assay: Histone-lysine N-methyltransferase 2A (Homo sapiens) (UniProt Q03164)
Sequence (Q03164 whole entry, looked up): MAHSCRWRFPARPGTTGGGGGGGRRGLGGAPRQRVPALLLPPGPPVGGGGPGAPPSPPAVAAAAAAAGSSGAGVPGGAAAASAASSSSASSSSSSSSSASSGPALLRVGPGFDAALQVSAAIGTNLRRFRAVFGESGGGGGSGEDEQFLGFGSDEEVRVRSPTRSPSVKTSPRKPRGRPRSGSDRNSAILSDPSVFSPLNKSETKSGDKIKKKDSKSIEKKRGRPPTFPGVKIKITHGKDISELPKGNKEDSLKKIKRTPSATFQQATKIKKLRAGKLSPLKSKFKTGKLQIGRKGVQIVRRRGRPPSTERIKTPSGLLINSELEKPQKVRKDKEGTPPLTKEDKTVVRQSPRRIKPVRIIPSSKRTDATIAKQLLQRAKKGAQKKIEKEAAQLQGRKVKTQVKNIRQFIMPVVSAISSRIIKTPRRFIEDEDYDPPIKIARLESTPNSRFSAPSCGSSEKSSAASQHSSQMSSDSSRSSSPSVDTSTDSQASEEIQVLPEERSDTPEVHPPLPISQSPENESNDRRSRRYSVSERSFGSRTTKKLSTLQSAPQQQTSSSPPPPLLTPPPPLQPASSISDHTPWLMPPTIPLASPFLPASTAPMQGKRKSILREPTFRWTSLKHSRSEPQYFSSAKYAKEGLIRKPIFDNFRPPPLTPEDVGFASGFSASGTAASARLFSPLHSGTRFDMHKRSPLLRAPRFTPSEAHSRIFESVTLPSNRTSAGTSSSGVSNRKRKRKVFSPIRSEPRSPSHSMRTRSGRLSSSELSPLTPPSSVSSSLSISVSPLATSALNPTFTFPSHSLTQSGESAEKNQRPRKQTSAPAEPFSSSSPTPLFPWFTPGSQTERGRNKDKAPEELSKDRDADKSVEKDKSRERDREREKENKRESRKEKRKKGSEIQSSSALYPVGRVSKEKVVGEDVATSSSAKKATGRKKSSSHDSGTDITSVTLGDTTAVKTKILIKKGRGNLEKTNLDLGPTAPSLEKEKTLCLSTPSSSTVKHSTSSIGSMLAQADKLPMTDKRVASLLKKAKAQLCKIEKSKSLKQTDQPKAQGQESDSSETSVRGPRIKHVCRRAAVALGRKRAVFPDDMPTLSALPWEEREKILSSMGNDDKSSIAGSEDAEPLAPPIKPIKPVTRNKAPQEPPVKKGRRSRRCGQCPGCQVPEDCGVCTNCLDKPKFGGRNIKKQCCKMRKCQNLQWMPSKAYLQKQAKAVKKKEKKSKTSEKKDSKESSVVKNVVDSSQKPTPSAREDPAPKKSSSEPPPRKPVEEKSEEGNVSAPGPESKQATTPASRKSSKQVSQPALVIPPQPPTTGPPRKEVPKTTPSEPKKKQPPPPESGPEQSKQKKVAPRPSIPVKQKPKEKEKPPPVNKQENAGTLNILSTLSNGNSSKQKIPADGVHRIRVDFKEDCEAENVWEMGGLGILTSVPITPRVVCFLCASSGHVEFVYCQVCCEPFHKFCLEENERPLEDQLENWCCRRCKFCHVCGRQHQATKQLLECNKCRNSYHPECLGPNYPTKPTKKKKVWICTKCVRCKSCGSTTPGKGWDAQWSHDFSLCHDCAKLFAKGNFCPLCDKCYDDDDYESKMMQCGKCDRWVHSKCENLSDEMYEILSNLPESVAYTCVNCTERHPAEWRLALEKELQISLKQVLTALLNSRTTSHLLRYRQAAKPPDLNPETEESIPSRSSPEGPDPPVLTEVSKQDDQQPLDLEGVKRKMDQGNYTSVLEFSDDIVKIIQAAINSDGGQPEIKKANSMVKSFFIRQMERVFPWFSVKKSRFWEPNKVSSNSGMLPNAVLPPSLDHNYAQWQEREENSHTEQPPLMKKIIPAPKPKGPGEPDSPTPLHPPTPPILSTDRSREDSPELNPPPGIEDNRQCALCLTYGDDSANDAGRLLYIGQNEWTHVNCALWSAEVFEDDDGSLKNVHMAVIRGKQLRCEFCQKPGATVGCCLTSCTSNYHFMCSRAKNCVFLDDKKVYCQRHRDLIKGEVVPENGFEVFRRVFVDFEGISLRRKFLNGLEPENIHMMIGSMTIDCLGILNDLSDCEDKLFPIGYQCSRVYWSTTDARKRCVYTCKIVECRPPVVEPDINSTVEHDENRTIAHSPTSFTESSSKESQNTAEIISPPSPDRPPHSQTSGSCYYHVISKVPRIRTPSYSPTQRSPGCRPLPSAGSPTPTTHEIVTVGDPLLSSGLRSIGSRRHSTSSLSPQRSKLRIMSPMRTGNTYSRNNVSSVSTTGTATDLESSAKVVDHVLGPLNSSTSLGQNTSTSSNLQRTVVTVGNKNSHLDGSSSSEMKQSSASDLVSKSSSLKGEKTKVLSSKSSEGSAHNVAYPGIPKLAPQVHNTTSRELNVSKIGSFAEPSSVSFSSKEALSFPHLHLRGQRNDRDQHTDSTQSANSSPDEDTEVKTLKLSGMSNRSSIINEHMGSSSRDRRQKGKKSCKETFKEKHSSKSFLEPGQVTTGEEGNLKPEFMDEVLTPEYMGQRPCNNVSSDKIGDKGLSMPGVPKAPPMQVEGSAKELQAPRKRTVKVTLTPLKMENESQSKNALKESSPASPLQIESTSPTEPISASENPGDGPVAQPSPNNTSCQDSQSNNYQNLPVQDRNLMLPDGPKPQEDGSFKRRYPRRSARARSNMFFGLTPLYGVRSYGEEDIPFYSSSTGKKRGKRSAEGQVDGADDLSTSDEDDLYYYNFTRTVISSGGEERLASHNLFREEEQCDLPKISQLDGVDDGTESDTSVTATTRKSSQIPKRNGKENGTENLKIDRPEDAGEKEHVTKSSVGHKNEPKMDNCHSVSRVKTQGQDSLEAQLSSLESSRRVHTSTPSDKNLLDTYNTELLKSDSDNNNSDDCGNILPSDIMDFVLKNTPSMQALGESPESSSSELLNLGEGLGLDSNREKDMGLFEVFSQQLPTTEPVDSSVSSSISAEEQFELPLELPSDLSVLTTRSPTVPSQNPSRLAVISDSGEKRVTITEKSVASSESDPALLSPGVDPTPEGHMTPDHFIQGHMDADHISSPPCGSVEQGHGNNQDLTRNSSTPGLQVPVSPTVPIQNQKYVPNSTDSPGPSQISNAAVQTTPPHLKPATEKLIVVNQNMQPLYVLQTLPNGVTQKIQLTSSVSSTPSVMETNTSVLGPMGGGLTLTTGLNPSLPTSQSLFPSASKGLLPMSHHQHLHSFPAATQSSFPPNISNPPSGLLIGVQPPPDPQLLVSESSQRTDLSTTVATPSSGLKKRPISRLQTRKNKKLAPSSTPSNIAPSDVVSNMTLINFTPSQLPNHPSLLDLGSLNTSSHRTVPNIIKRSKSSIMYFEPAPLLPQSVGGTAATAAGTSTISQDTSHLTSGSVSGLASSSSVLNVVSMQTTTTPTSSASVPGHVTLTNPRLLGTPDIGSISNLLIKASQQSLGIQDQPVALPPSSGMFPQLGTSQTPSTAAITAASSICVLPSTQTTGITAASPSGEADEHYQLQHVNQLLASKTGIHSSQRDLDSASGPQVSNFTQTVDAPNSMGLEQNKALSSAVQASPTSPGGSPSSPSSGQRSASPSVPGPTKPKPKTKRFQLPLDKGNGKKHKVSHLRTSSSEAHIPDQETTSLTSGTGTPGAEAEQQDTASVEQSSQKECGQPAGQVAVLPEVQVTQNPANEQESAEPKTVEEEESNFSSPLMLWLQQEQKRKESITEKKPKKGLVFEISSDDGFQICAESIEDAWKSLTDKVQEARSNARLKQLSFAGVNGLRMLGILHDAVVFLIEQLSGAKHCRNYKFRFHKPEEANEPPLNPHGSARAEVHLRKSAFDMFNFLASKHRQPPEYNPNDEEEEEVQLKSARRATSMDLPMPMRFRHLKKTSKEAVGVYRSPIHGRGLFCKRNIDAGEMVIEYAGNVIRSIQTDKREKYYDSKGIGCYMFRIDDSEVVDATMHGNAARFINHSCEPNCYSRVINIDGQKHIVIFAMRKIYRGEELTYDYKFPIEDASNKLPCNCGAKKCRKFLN
method: Inhibitor SAR for Compounds Targeting the Menin-MLL Interaction in MLL Related Leukemias: Competition With Fluorescein Labeled MLL-derived Peptide
applied conditions: Menin-MLL fluorescein peptide fluorescence polarization competition
Results filed as inconclusive are left out. The source made the active and inactive calls. No rule for the calls is given here.
assay metric: Potency

| compound string | assay metric | recorded result |
| --- | --- | --- |
| [N-]=[N+]=Nc1ccc(OCCCN2CCC(C(O)(c3ccccc3)c3ccccc3)CC2)cc1 | Potency | 58 µM (active) |
| NCc1ccc(OCCCN2CCC(C(O)(c3ccccc3)c3ccccc3)CC2)cc1 | Potency | 7.6 µM (active) |
| OC(c1ccccc1)(c1ccccc1)C1CCN(CCCOc2ccc(C(F)(F)F)cc2)CC1 | Potency | 52 µM (active) |
| Nc1ccc(OCCCN2CCC(C(O)(c3ccccc3)c3ccccc3)CC2)cc1 | Potency | 60.5 µM (active) |
| N#Cc1ccc(OCCCN2CCC(C(O)(c3ccccc3)c3ccccc3)CC2)cc1F | Potency | 26.5 µM (active) |
